System: MCF7 breast
Test: NCI tumour cell line growth inhibition, 48 h
resultType: TGI

                                   molecule  measured
0  COC(=O)N1CC[C@@H]2CCC=C(c3cccc4c3OCO4)[C@@H]21  > 100 µM
1  COC(=O)C12CCC(C(=O)OC)(Cc3c(c4ccccc4n3S(=O)(=O)c3ccccc3)C1)C2=O (configuration not stated)  > 100 µM
2          C/C(CC(O)(C(F)(F)F)C(F)(F)F)=N\N   > 10 µM
3  Clc1ccc(-c2nc3c(-c4ccc(Cl)cc4)nc(-c4ccccc4)cn3c2-c2ccc(Cl)cc2)cc1   > 50 µM
4  COc1ccc2c(c1)/C(=C(\C(Cl)=C(\Cl)N1CCCCC1)[N+](=O)[O-])N2  > 100 µM
5  Oc1c(C(O)(c2ccccc2)c2ccc3ccccc3c2O)ccc2ccccc12     24 µM
6  CCN1CCN(CCOc2ccc(CNc3ccc4nc(CCC5CCCCC5)[nH]c4c3)cc2)CC1   5.84 µM
